Values were extracted from PubChem BioAssay (NCI).

Would you kindly list TGI for each of these compounds?
tested on: SK-MEL-5 melanoma; test: NCI tumour cell line growth inhibition, 48 h
Numbers only; they are read as µM.

Q) Recorded TGI of Clc1cc(Cl)cc(Nc2ccc3cc(OCCCN4CCOCC4)ccc3n2)c1 , please.
A) 3.13

Q) Recorded TGI of COc1ccc(Cc2cnc(NC(=O)c3ccc4c(c3)OCCO4)s2)cc1 , please.
A) 0.168

Q) Recorded TGI of CC(C)(C)OC(=O)C1C(=O)NC(=O)CC1C(COCc1ccccc1)OCc1ccccc1 (configuration not stated) , please.
A) 31.1

Q) Recorded TGI of O=c1oc2ccc(Br)cc2c(=O)n1-c1ccc(F)cc1F , please.
A) 2.82

Q) Recorded TGI of O=C(Nc1ccc(Cl)c(Cl)c1)Nc1ccccc1O , please.
A) 20.5

Q) Recorded TGI of CCCCCCCCCCCCOC1C(C(CC(=O)NCCN2CCCC2)NS(=O)(=O)c2cc(Cl)cc(Cl)c2)OC2OC(C)(C)OC21 (configuration not stated) , please.
A) 3.27

Q) Recorded TGI of COc1ccc2c(c1)CCN=C2c1ccccc1CCCCl , please.
A) 13.3

Q) Recorded TGI of CC(C)(C)OC(=O)N1N=NC2C1C1CC(OCc3ccccc3)(OCc3ccccc3)C2O1 (configuration not stated) , please.
A) 32.6

Q) Recorded TGI of COCOc1ccc(C2(O)Oc3cc(OCOC)ccc3C2C)c(O)c1 (configuration not stated) , please.
A) 23

Q) Recorded TGI of O=C1CCCc2cc3c(cc21)CC1(C3)Cc2ccc3c(c2C1)C(=O)CCC3 (configuration not stated) , please.
A) 7.66

Q) Recorded TGI of Cc1c2ccncc2c(C)c2c1[nH]c1ccccc12 , please.
A) 2.01

Q) Recorded TGI of OCCNCCOc1ccc(/C(=C(/Cl)c2ccccc2)c2ccccc2)cc1 , please.
A) 19.2

Q) Recorded TGI of COC(=O)[C@H](Cc1ccccc1)NC(=O)c1ccc(CNC(=O)/C=C/c2cccc(Oc3ccccc3)c2)cc1 , please.
A) 36.9

Q) Recorded TGI of CC(C(=O)n1c2ccccc2c2ccccc21)N(c1ccccc1)c1ccccc1 (configuration not stated) , please.
A) 35.1

Q) Recorded TGI of C=C1C(=O)OC2/C=C(/C)C3(O)OC(C)(CC(OC(=O)C(C)C)C12)CC3OC(C)=O (configuration not stated) , please.
A) 23.8

Q) Recorded TGI of O=C1CSC(c2ccc(-c3nc4ccccc4s3)cc2)=N1 , please.
A) 41.2

Q) Recorded TGI of Cc1ccc(-c2c(C#N)c(-c3ccc([N+](=O)[O-])cc3)c(C#N)c(=O)n2NS(=O)(=O)c2ccccc2)cc1 , please.
A) 26.9

Q) Recorded TGI of O=C(OCc1ccc2c(Cl)cc(Cl)c(O)c2n1)N1CCN(C(=O)c2cc3cc(F)ccc3[nH]2)CC1 , please.
A) 3.9

---

test system: HOP-62 NSCLC; experiment: NCI tumour cell line growth inhibition, 48 h; in the data active = GI50 below about 0.43 µM; inactive = the rest
Write down one outcome, taken from active, inactive

Q) Just curious, what result did COc1ccc(Cc2cnc(NC(=O)c3ccc4c(c3)OCCO4)s2)cc1 get here?
A) active

Q) Just curious, what result did CCCCCCCCCCCCOC1C(C(CC(=O)NCCN2CCCC2)NS(=O)(=O)c2cc(Cl)cc(Cl)c2)OC2OC(C)(C)OC21 (centres undefined) get here?
A) inactive

Q) Just curious, what result did COC(=O)c1cc(/C=C/c2ccc(S(N)(=O)=O)cc2)ccc1O get here?
A) inactive

Q) Just curious, what result did COC(C(=O)[C@@H](O)[C@@H](C)O)[C@@H]1Cc2cc3cc(O[C@H]4C[C@@H](O[C@H]5C[C@@H](O)[C@H](O)C(C)O5)[C@H](O)C(C)O4)c(C)c(O)c3c(O)c2C(=O)[C@H]1O[C@H]1C[C@@H](O[C@H]2C[C@@H](O[C@H]3C[C@@H](O)[C@H](OC)C(C)O3)[C@@H](O)C(C)O2)[C@H](O)C(C)O1 (some centres undefined) get here?
A) active

Q) Just curious, what result did N#Cc1ccc(OC(=O)Nc2ccc(Cl)c(Cl)c2)cc1 get here?
A) inactive

Q) Just curious, what result did COc1ccc2c(Oc3ccc(NC(=O)c4c(C)n(CC(C)(C)O)n(-c5ccccc5)c4=O)nc3)ccnc2c1 get here?
A) inactive

Q) Just curious, what result did C[C@H]1CCC/C=C/[C@@H]2C[C@H](O)C[C@H]2[C@H](O)[C@@H](SCC(O)CO)CC(=O)O1 (some centres undefined) get here?
A) inactive

Q) Just curious, what result did CCCCCCCCCCN1CCC(N2CCCCC2)CC1 get here?
A) inactive

Q) Just curious, what result did c1csc(-c2c3ccc(=[N+]4CCCCC4)cc-3oc3cc(N4CCCCC4)ccc23)c1 get here?
A) active

Q) Just curious, what result did COc1ccc2c3c(Nc4ccc(/C(C)=N/O)cc4)[nH]c4ccccc4c-3c(N=O)c2c1 get here?
A) inactive

Q) Just curious, what result did CC/C=C/C/C=C/C/C=C/C/C=C/C/C=C/C/C=C/CCC(=O)Nc1ccn([C@@H]2O[C@H](CO)[C@@H](O)C2(F)F)c(=O)n1 get here?
A) active

Q) Just curious, what result did O=C1C(Cl)=C(Nc2ccccc2O)C(=O)N1Cc1ccccc1 get here?
A) inactive

Q) Just curious, what result did Clc1ccc(N=CNc2ccc(-c3nc4ccccc4o3)cc2)cc1 get here?
A) inactive

Q) Just curious, what result did Cc1cc(C)n(-c2nnc3n2N=C(c2ccc(-c4ccccc4)cc2)CS3)n1 get here?
A) inactive
